Test: Blood and brain levels of 6BN after s.c. doses (FIG. 3)
Assay type: in vivo, guinea pigs
Conditions: guinea pig, blood, sc; 1 mg/kg s.c.; guinea pigs; read-out: initial blood t1/2 (converted)
assay.readout: half-life

## Input Could you share which half-life value was measured for Oc1ccc2c3c1O[C@H]1[C@H](O)CC[C@@]4(O)[C@@H](C2)N(CC2CC2)CC[C@]314 [6BN, 6β-naltrexol] ?
## Output ~1 h

====

Assay: Oral bioavailability in humans
Conditions: human, in vivo
assay.readout: bioavailability

## Input Reported bioavailability for Oc1ccc2c3c1O[C@H]1[C@H](O)CC[C@@]4(O)[C@@H](C2)N(CC2CC2)CC[C@]314 [6BN, 6β-naltrexol] : what is it?
## Output ~30%
